# Tested on: ATS189
# experiment: qHTS profiling for inhibitors of Plasmodium falciparum proliferation (AID 504749); further: nearly all actives have a fitted effect of over 60% in size
# run_parameters: P. falciparum in erythrocytes, SYBR Green DNA, 72 h; series mostly up to 12.8 µM
Inconclusive results are not listed. The source made the active and inactive calls. The call rests on the fitted dose curve; in most records, active means well fitted inhibition curve with a large enough effect; inconclusive means small, poorly fitted or top-dose-only effect; inactive means flat fitted curve, though single readings scatter.
Respond with a class label; see active, inactive

Worked examples, 5 compounds total:
Clc1ccc([C@H](Cn2ccnc2)OCc2c(Cl)cccc2Cl)c(Cl)c1 | active
COc1ccccc1OC[C@H](O)CO | inactive
C=CC1=C(C(=O)O)N2C(=O)[C@@H](NC(=O)/C(=N\OCC(=O)O)c3csc(N)n3)[C@@H]2SC1 | inactive
CC[N+](CC)(CC)CC[C@](O)(c1ccccc1)C1CCCCC1 | inactive
O=C(O)[C@@H]1CCCN1 | inactive

Task: Record lookup: outcome of this test for N[C@@H]1C(O)OC(CO)C(O)C1O (some centres not stated) ?
Output: inactive

Task: Record lookup: outcome of this test for `CC(=C(CCOP(=O)(O)O)SC(=O)c1ccccc1)N(C=O)Cc1cnc(C)nc1N` ?
Output: inactive

Task: Record lookup: outcome of this test for `Cc1cccc(C)c1NC(=O)[C@H](C)N` ?
Output: inactive

Task: Record lookup: outcome of this test for CC(=O)N[C@@H]1C(O)OC(CO)C(O)C1O (some centres not stated) ?
Output: inactive

Task: Record lookup: outcome of this test for O=C1OC(CO)C(O)C(O)C1O (configuration not stated) ?
Output: inactive
